Read-out: ABC Transporter (ABCC3), ABCC3 (gene 8714)
assayProtocol: LTEA_HepaRG_ABCC3: Life Technologies and Expression Analysis (LTEA) Assay for ABC Transporter (ABCC3) using HepaRG (AID 2283462)
experimentalContext: mRNA level, 48 h; actives raise or lower the signal
The source made the active and inactive calls. How the source made its calls: active means hit-call score of the fitted dose curve at least 0.9, where 1 is the maximum; inactive means score below 0.9.
Labels: active, inactive

CCOCCOCCO    inactive
CCCC[C@H]1CN(CC2CCOCC2)C(=O)OC12CCN(C1(C)CCN(C(=O)c3c(C)ncnc3C)CC1)CC2    inactive
O=C(N[C@@H](c1ccccc1)[C@@H]1CCCCN1)c1cccc(C(F)(F)F)c1Cl    active
COc1ccc(OC(F)(F)F)cc1CN[C@H]1CCCN[C@H]1c1ccccc1    inactive
Cc1ccc(-c2cc(C(F)(F)F)nn2-c2ccc(S(N)(=O)=O)cc2)cc1    inactive
NC=O    inactive
NC(=Nc1ccccc1)Nc1ccccc1    inactive
O=C1CCCCC1    inactive
COC(=O)CCC(=O)OC    inactive
NCCOCCOCCN    inactive
CC(=O)O[C@]1(C(C)=O)CC[C@H]2[C@@H]3C=C(Cl)C4=CC(=O)[C@@H]5C[C@@H]5[C@]4(C)[C@H]3CC[C@@]21C    inactive
CC(=O)CC(c1ccccc1)c1c(O)c2ccccc2oc1=O (stereo unspecified)    inactive
O=NO    inactive
CC(C)(C)c1ccccc1    inactive
CC(C)c1cccc(C(C)C)c1    inactive
CC(COCC(C)OC(=O)c1ccccc1)OC(=O)c1ccccc1 (stereo unspecified)    inactive
CC(N)=O    inactive
O=C1OC(c2ccc(O)cc2)(c2ccc(O)cc2)c2ccccc21    inactive
CO[C@@H]1COCC[C@@H]1N[C@@H]1CC[C@@](C(=O)N2CCc3ncc(C(F)(F)F)cc3C2)(C(C)C)C1    inactive
CC(C)NCC(O)c1ccc(O)c(O)c1 (stereo unspecified)    inactive
CCCCCCCCCCCCCCCCO    inactive
c1ccc2occc2c1    inactive
CCCCCCCCCCCCCCOS(=O)(=O)O    inactive
Oc1ccc(O)cc1    inactive
O=C(O)CC(O)(CC(=O)O)C(=O)O    inactive
O=C(O)CN(CC(=O)O)CC(=O)O    inactive

###

Read-out: Human Leukocyte Antigen - DR isotype (HLADR), HLA-DRA (gene 3122)
assayProtocol: BSK_3C_HLADR: BioMAP Diversity Plus: 3C Assay for Human Leukocyte Antigen - DR isotype (HLADR) Biomarker Activity (AID 2283019);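 on Outcome: ELISA of cell-surface HLA-DR on HUVEC 24 h after dosing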
experimentalContext: primary human endothelial cells (HUVEC); actives raise or lower the signal
Calls of active or inactive are those of the source. Rule for the calls: active = hit-call score of the fitted dose curve at least 0.9, where 1 is the maximum; inactive = score below 0.9.
Outcome codes: 1 = active, -1 = inactive

O=Cc1ccccc1C=O    -1
C#CC(O)C(CC)CCCC (configuration not stated)    -1
CC(=O)O    -1
CN(C)CCCN1c2ccccc2Sc2ccc(Cl)cc21    1
O=C1O[C@H]([C@H](O)CO)C(O)=C1O    -1
CN(C)C(=O)NC1(c2ccccc2)CCN(CC[C@@]2(c3ccc(F)c(F)c3)CN(C(=O)c3ccccc3)CCO2)CC1    -1
CCCCCCC(C=O)=Cc1ccccc1    1
O=C1CCCCC1    -1
CCCCC(CC)COC(=O)CCCCCCCC(=O)OCC(CC)CCCC (configuration not stated)    -1
O=NO    -1
C/C=C/C=C/C(=O)O    -1
O=C1OC(c2ccc(O)cc2)(c2ccc(O)cc2)c2ccccc21    1
CN(C)C(=O)NC1(c2ccccc2)CCN(CCC[C@]2(c3ccc(Cl)c(Cl)c3)CCCN(C(=O)c3ccccc3)C2)CC1    -1
Oc1ccc(O)cc1    1
CS(=O)(=O)c1ccc([C@@H](C[C@H]2CCC(=O)C2)C(=O)Nc2cnccn2)cc1Cl    -1
NC=O    -1
Cc1cn([C@H]2C=C[C@@H](CO)O2)c(=O)[nH]c1=O    -1
CC(C)c1cccc(C(C)C)c1NC(=O)NS(=O)(=O)c1cc(C(C)(C)O)co1    -1
O=C(NS(=O)(=O)/C=C/c1cccs1)c1ccc(F)cc1Br    -1
CCCCc1nc2cccnc2n1Cc1ccc(-c2ccccc2-c2nnn[nH]2)cc1    -1
Cc1occc(=O)c1O    -1
COc1ccc(C(=O)Nc2nc3ccccc3c(NCc3ccccc3)c2C#N)cc1    -1
CC(=O)OCC(COC(C)=O)OC(C)=O    -1
c1ccc2occc2c1    -1
COc1ccc(OC(F)(F)F)cc1CN[C@H]1CCCN[C@H]1c1ccccc1    1
Cc1cc(Cc2ccc(N)c(C)c2)ccc1N    -1
CCCCCCCCCC[N+](C)(C)[O-]    -1
N[C@@H](Cc1c[nH]c2ccccc12)C(=O)O    -1
O=C(O)CN(CC(=O)O)CC(=O)O    -1
CCOCCOCCO    -1
CCCC[C@H]1CN(CC2CCOCC2)C(=O)OC12CCN(C1(C)CCN(C(=O)c3c(C)ncnc3C)CC1)CC2    -1
NCCOCCOCCN    -1
CC(=O)O[C@]1(C(C)=O)CC[C@H]2[C@@H]3C=C(Cl)C4=CC(=O)[C@@H]5C[C@@H]5[C@]4(C)[C@H]3CC[C@@]21C    1
CN(C)CCCN(C)CCCN(C)C    -1
O=C1NC(=O)C(c2ccccc2)(c2ccccc2)N1    -1
Cc1ccc(-c2cc(C(F)(F)F)nn2-c2ccc(S(N)(=O)=O)cc2)cc1    1
CCCCC(CC)CO (configuration not stated)    -1
O=C(Oc1ccccc1)c1cccc(C(=O)Oc2ccccc2)c1    -1
CC(C)c1cccc(C(C)C)c1    -1
CC1(C)C(=O)NC(=O)N1CO    -1
Cc1ccc(C(C)(C)C)c(O)c1    -1
CC(C)NCC(O)c1ccc(O)c(O)c1 (configuration not stated)    -1
O=C(N[C@@H](c1ccccc1)[C@@H]1CCCCN1)c1cccc(C(F)(F)F)c1Cl    1
S=c1[nH]c2ccccc2s1    -1
Nc1nc(=S)c2[nH]cnc2[nH]1    -1
Oc1ccccc1O    1
O=C(O)CC(O)(CC(=O)O)C(=O)O    -1
